Target: PKC delta kinase (Homo sapiens, UniProt Q05655)
Sequence (Q05655 whole entry): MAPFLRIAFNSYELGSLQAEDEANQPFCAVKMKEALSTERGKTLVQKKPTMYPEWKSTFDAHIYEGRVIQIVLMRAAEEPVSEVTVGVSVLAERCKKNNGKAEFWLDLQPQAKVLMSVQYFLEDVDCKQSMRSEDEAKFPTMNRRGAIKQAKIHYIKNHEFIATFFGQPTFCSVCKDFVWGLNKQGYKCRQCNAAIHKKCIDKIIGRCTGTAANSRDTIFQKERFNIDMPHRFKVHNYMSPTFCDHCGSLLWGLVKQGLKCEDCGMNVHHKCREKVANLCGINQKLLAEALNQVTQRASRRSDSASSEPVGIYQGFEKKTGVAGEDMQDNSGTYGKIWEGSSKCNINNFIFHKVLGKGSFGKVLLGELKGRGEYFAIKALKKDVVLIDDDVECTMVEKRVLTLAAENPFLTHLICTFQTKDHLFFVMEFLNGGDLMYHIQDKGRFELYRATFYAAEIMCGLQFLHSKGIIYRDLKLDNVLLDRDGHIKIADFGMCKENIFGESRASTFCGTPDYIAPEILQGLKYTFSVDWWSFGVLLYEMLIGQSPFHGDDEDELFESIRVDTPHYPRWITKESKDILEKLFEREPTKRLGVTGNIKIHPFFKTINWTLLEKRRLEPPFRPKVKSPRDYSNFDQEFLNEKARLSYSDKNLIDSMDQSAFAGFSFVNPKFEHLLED
Assay: PKC delta kinase inhibition, coupled-enzyme (NADH absorbance) assay, Ki
Format: biochemical
Details: 150 μM ATP, 46 nM PKC delta kinase, 30° C.; read-out: Ki PKC delta
pKi: −log10 of the molar value.
Measure: pKi

These recorded examples may help you get a feel for the data.
# Compound, Data value
rows = [
    ("NC1CN(c2cccc(-c3n[nH]c4ncccc34)n2)C1", "< 5.70"),
    ("CC(C)(C)[C@H]1CN(c2cccc(-c3n[nH]c4ncccc34)n2)CCN1", "> 6.30"),
    ("COC(C)(C)CC1CN(c2cccc(-c3n[nH]c4ncccc34)n2)CCN1 (centres unmarked)", "< 5.90"),
    ("CC(C)(N)C1CCN(c2ccc(F)c(-c3n[nH]c4ncccc34)n2)C1 (centres unmarked)", "> 5.55"),
    ("CC(C)C[C@H]1CN(c2ccnc(-c3n[nH]c4ncccc34)n2)CCN1", "> 5.55"),
]

input: API: value(readout= pKi, system= PKC delta kinase (Homo sapiens, UniProt Q05655), query= CC(C)C[C@H]1CN(c2ccc(Cl)c(-c3n[nH]c4ncccc34)n2)CC[C@H]1N )
output: > 6.30

input: Continue with NC1CCN(c2cc(CO)cc(-c3n[nH]c4ncccc34)n2)CC1
output: > 6.30

input: Continue with CC(C)C(N)[C@@H]1CCCN(c2ccc(F)c(-c3n[nH]c4ncccc34)n2)C1 (some centres unmarked)
output: < 5.90

---

Target: PKC delta kinase (Homo sapiens, UniProt Q05655)
Test: PKC delta kinase inhibition, coupled-enzyme (NADH absorbance) assay, Ki
Assay type: biochemical
Conditions: 150 μM ATP, 46 nM PKC delta kinase, 30° C.; read-out: Ki PKC delta
// values below are reported Ki

These recorded examples may help you get a feel for the data.
# Compound, Measurement target, Measure, Data value
rows = [
    ("CC(C)C[C@H]1CN(c2ccc(F)c(-c3n[nH]c4ncccc34)n2)CC[C@H]1N", "PKC delta kinase (Homo sapiens, UniProt Q05655)", "Ki", "< 500 nM"),
    ("CC(F)(F)C(C)(O)C1CN(c2ccc(F)c(-c3n[nH]c4ncccc34)n2)CCN1 (centres unmarked) [Compound 282]", "PKC delta kinase (Homo sapiens, UniProt Q05655)", "Ki", "< 2800 nM"),
    ("NC1CCN(c2ccc(C(F)(F)F)c(-c3n[nH]c4ncccc34)n2)C1 (centres unmarked)", "PKC delta kinase (Homo sapiens, UniProt Q05655)", "Ki", "> 1250 nM"),
    ("CC(O)(C1CC1)C1CN(c2ccc(F)c(-c3n[nH]c4ncccc34)n2)CCN1 (centres unmarked) [Compound 271]", "PKC delta kinase (Homo sapiens, UniProt Q05655)", "Ki", "< 500 nM"),
    ("CC(C)C(F)(F)C1CN(c2cccc(-c3n[nH]c4ncccc34)n2)CCN1 (centres unmarked)", "PKC delta kinase (Homo sapiens, UniProt Q05655)", "Ki", "< 2800 nM"),
    ("CC(C)(N)C1CCN(c2ccc(C(F)(F)F)c(-c3n[nH]c4ncccc34)n2)C1 (centres unmarked)", "PKC delta kinase (Homo sapiens, UniProt Q05655)", "Ki", "> 1250 nM"),
    ("CC(C)(F)CC1CN(c2cccc(-c3n[nH]c4ncccc34)n2)CCN1 (centres unmarked)", "PKC delta kinase (Homo sapiens, UniProt Q05655)", "Ki", "< 500 nM"),
    ("NC(=O)C1(N)CCN(c2ccc(F)c(-c3n[nH]c4ncccc34)n2)CC1", "PKC delta kinase (Homo sapiens, UniProt Q05655)", "Ki", "> 1250 nM"),
    ("NCC1CCN(c2cc(C(F)(F)F)cc(-c3n[nH]c4ncccc34)n2)CC1", "PKC delta kinase (Homo sapiens, UniProt Q05655)", "Ki", "> 1250 nM"),
    ("CN1CCCN(c2cccc(-c3n[nH]c4ncccc34)n2)CC1", "PKC delta kinase (Homo sapiens, UniProt Q05655)", "Ki", "> 2000 nM"),
]

input: Any idea what Ki was measured for NC1CCN(c2ccc(F)c(-c3n[nH]c4ncccc34)n2)CC1 ?
output: > 1250 nM

input: Continue with COC(C)(C)C1CN(c2ccc(F)c(-c3n[nH]c4ncccc34)n2)CCN1 (centres unmarked)
output: > 1250 nM

input: Continue with CC(C)(C)C(N)C1CCN(c2ccc(F)c(-c3n[nH]c4ncccc34)n2)C1 (centres unmarked) [Compound 422]
output: < 2800 nM

input: Continue with C=C(F)c1cc(-c2n[nH]c3ncccc23)nc(N2CCC(N)CC2)c1
output: > 1250 nM

input: Continue with CC(C)CC1CN(c2ccc(C(F)(F)F)c(-c3n[nH]c4ncccc34)n2)CCC1CC#N (centres unmarked)
output: > 1250 nM

input: Continue with CC(C)CC1(CO)CN(c2ccc(C(F)(F)F)c(-c3n[nH]c4ncccc34)n2)CCC1N (centres unmarked) [Compound 411]
output: < 2800 nM

input: Continue with FC(F)(F)C1CN(c2cccc(-c3n[nH]c4ncccc34)n2)CCN1 (centres unmarked)
output: < 2800 nM

---

Molecular target: PKC delta kinase (Homo sapiens)
Assay: PKC delta kinase inhibition, coupled-enzyme (NADH absorbance) assay, Ki
Assay type: biochemical
Conditions: 150 μM ATP, 46 nM PKC delta kinase, 30° C.; read-out: Ki PKC delta
pKi: −log10 of the molar value.
Measure: pKi

# Compound, Measure, Data value
measured = [
    ("CCC(C)(C)C(N)C1CCCN(c2ccc(F)c(-c3n[nH]c4ncccc34)n2)C1 (centres unmarked) [Compound 378]", "pKi", "> 6.30"),
    ("c1cc(-c2n[nH]c3ncccc23)nc(N2CCCNCC2)c1", "pKi", "> 6.30"),
    ("NCC1CN(c2ccc(F)c(-c3n[nH]c4ncccc34)n2)CCC1O (centres unmarked) [Compound 297]", "pKi", "< 5.90"),
    ("C[C@@H]1CN(c2ccc(C(F)(F)F)c(-c3n[nH]c4ncccc34)n2)CCN1", "pKi", "< 5.90"),
]

input: Any idea what pKi was measured for CC(F)(F)C(C)(O)C1CN(c2ccc(F)c(-c3n[nH]c4ncccc34)n2)CCN1 (centres unmarked) [Compound 283] ?
output: > 7.30

input: Continue with Fc1ccc(N2CCC3(CCNC3)C2)nc1-c1n[nH]c2ncccc12 (centres unmarked)
output: < 5.90

input: Continue with OCC1CCN(c2ccc(C(F)(F)F)c(-c3n[nH]c4ncccc34)n2)CC1
output: < 5.90

input: Continue with CC(C)C(C)(O)C1CN(c2nc(-c3n[nH]c4ncccc34)ccc2F)CCN1 (centres unmarked) [Compound 329]
output: > 7.30

input: Continue with CC(C)C[C@H]1CN(c2cccc(-c3n[nH]c4ncccc34)n2)CC[C@@H]1O
output: < 5.90

---

Target: PKC delta kinase (Homo sapiens)
Assay: PKC delta kinase inhibition, coupled-enzyme (NADH absorbance) assay, Ki
Format: biochemical
Details: 150 μM ATP, 46 nM PKC delta kinase, 30° C.; read-out: Ki PKC delta
pKi: −log10 of the molar value.
// values below are reported pKi

These recorded examples may help you get a feel for the data.
# Molecule, Data value
data = [
    ("CCC(N)(CC)C1CCCN(c2ccc(F)c(-c3n[nH]c4ncccc34)n2)C1 (centres unmarked)", "> 5.55"),
    ("CC(C)C(C)(O)C1CN(c2nc(-c3n[nH]c4ncccc34)c(F)cc2F)CCN1 (centres unmarked) [Compound 444]", "< 5.90"),
    ("CC(C)CC1(O)CNCCN(c2ccc(F)c(-c3n[nH]c4ncccc34)n2)C1 (centres unmarked)", "< 5.90"),
    ("CC(C)C[C@H]1CN(c2ccc(C(F)(F)F)c(-c3n[nH]c4ncccc34)n2)CC[C@H]1N", "> 6.30"),
    ("CC(C)CC1(CN)CN(c2ccc(F)c(-c3n[nH]c4ncccc34)n2)C1", "< 5.90"),
]

input: Any idea what pKi was measured for CC(C)(C)C(N)C1CCCN(c2ccc(F)c(-c3n[nH]c4ncccc34)n2)C1 (centres unmarked) [Compound 308] ?
output: > 5.55

input: Continue with NCCC1CCCN(c2ccc(F)c(-c3n[nH]c4ncccc34)n2)C1 (centres unmarked)
output: < 5.90

input: Continue with CC(C)C[C@H]1CN(c2ccc(-c3ccccc3)c(-c3n[nH]c4ncccc34)n2)CCN1
output: > 5.55

---

Listed here: molecules with reported Ki for PKC alpha kinase (Homo sapiens, UniProt P17252).

These recorded examples may help you get a feel for the data.
# Molecule, Data value
measured = [
    ("CC(C)C[C@@H]1C[C@H](N)CN(c2ccc(F)c(-c3n[nH]c4ncccc34)n2)C1", "> 1250 nM"),
    ("CC1(C)CC1(O)C1CN(c2ccc(F)c(-c3n[nH]c4ncccc34)n2)CCN1 (stereo not shown) [Compound 288]", "> 1250 nM"),
]

input: Any idea what Ki was measured for CC1(C)CN(c2ccc(C(F)(F)F)c(-c3n[nH]c4ncccc34)n2)CCN1 ?
output: > 1250 nM

input: Continue with CC(C)(C)C(N)C1CCCN(c2ccc(F)c(-c3n[nH]c4ncccc34)n2)C1 (stereo not shown) [Compound 308]
output: > 1250 nM

input: Continue with FC(F)(F)c1ccc(N2CCN[C@@H](Cc3ccccc3)C2)nc1-c1n[nH]c2ncccc12
output: > 1250 nM

input: Continue with OCC1CN(c2cccc(-c3n[nH]c4ncccc34)n2)CCN1 (stereo not shown)
output: < 2800 nM

input: Continue with CC(C)(C)C(N)C1CCCN(c2ccc(F)c(-c3n[nH]c4ncccc34)n2)C1 (stereo not shown) [Compound 330]
output: < 500 nM

input: Continue with CC(C)CC1(C)CN(c2ccc(C(F)(F)F)c(-c3n[nH]c4ncccc34)n2)CCN1 (stereo not shown)
output: < 500 nM

input: Continue with CNC1CCN(c2ccc(F)c(-c3n[nH]c4ncccc34)n2)CC1
output: > 1250 nM

input: Continue with CC(C)(C)C(N)C1CCCN(c2ccc(F)c(-c3n[nH]c4ncccc34)n2)C1 (stereo not shown) [Compound 331]
output: > 1250 nM
